# Tested on: HCV replicon
# assay: microbe, parasite or virus in culture
# Assay type: cell-based
# setup.conditions: Replicon IC50 values are determined by firefly luciferase signal; bicistronic replicon, 2 days; read-out: Replicon IC5Os
reported.endpoint: IC50

| molecule | target.system | result |
| --- | --- | --- |
| CCCS(=O)(=O)N1CCc2cc(-c3c(C#N)c4ccc(OC)cc4n3CC)ccc21 [Compound 703] | HCV replicon | 0.5 to 2 µM |
| CCn1c(-c2ccc(NS(C)(=O)=O)cc2)c(C#N)c2ccc(OCCn3ccnc3)cc21 [Compound 496] | HCV replicon | 0.5 to 2 µM |
| CCn1cc(C#N)c2cc(Br)ccc21 [Compound 108] | HCV replicon | > 2 µM |
| COc1ccc(-c2c(C#N)c3ccc(OC)cc3n2C)cc1 [Compound 76] | HCV replicon | > 2 µM |
| CCn1c(-c2cccc(NC(=O)OCC(C)(C)C)c2)c(C#N)c2ccc(OC)cc21 [Compound 356] | HCV replicon | > 2 µM |
| CCn1c(-c2cccc(NS(=O)(=O)CCCCl)c2)c(C#N)c2ccc(OC)cc21 [Compound 289] | HCV replicon | > 2 µM |
| CCn1c(-c2ccc(NS(C)(=O)=O)cc2)c(C#N)c2ccc(OCCN(C)CCOC)cc21 [Compound 482] | HCV replicon | 0.5 to 2 µM |
| CCn1c(-c2cccc(N)c2)c(C#N)c2ccc(O)cc21 [Compound 376] | HCV replicon | > 2 µM |
| CCCNS(=O)(=O)c1ccc(-c2c(C#N)c3ccc(OC)cc3n2CC)cc1 [Compound 374] | HCV replicon | > 2 µM |
| COc1ccc(-n2cc(C(=O)c3ccc(F)cc3)c3ccc(OC)cc32)cc1 [Compound 47] | HCV replicon | > 2 µM |
| CCn1c(-c2ccc(NS(C)(=O)=O)cc2)c(C#N)c2ccccc21 [Compound 371] | HCV replicon | > 2 µM |
| CCn1c(-c2cccc(N)c2)c(C#N)c2cc(OC)ccc21 [Compound 483] | HCV replicon | > 2 µM |
| CCn1c(-c2ccc(NS(=O)(=O)CC)cc2)c(C#N)c2ccc(OC)cc21 [Compound 83] | HCV replicon | < 0.5 µM |
| CCCOC(=O)Nc1ccc(-c2c(C#N)c3ccc(C(F)(F)F)cc3n2CC)cc1 [Compound 453] | HCV replicon | 0.5 to 2 µM |
| N#Cc1c(-c2ccc(N)cc2)n(CC2CC2)c2cc(OC(F)F)ccc12 [Compound 733] | HCV replicon | > 2 µM |
| CCC(=O)Nc1ccc(-c2c(C#N)c3cc(OC)ccc3n2CC)cc1 [Compound 644] | HCV replicon | > 2 µM |
| CCCn1c(-c2ccc(N(C)S(=O)(=O)CC)cc2)c(C#N)c2ccc(OC(F)F)cc21 [Compound 685] | HCV replicon | 0.5 to 2 µM |
| CCn1c(-c2nc3ccccc3s2)c(C#N)c2ccc(OC)cc21 [Compound 484] | HCV replicon | > 2 µM |
| CCn1c(-c2ccc(NS(C)(=O)=O)cc2)c(C#N)c2ccc(OCCN3CCN(C)CC3)cc21 [Compound 481] | HCV replicon | > 2 µM |
| CCS(=O)(=O)Nc1ccc(-c2c(C#N)c3ccc(OC)cc3n2CCOC)cc1 [Compound 674] | HCV replicon | > 2 µM |
| CCC(=O)Nc1ccc(C#Cc2c(C#N)c3cc(OC)ccc3n2CC)cc1 [Compound 225] | HCV replicon | 0.5 to 2 µM |
| CCn1c(-c2cccc(NC(=O)c3ccccc3)c2)c(C#N)c2ccc(C(F)(F)F)cc21 [Compound 560] | HCV replicon | > 2 µM |
| CCn1c(-c2ccc(N)cc2)c(C#N)c2ccc(OC(F)(F)F)cc21 [Compound 656] | HCV replicon | > 2 µM |
| CCn1c(-c2ccc(C(=O)Nc3ccc(OC)c(OC)c3)cc2)c(C#N)c2ccc(OC)cc21 [Compound 392] | HCV replicon | > 2 µM |
| CCOc1ccc2cc(-c3ccc(NS(C)(=O)=O)cc3)n(CC)c2c1 [Compound 410] | HCV replicon | 0.5 to 2 µM |
| CCOC(=O)Nc1cc(-c2c(C#N)c3ccc(OC(C)C)cc3n2CC)ccc1OC [Compound 603] | HCV replicon | > 2 µM |
| CCn1c(-c2ccc(C(=O)Nc3ccc(Cl)cc3)cc2)c(C#N)c2cc(OC)ccc21 [Compound 647] | HCV replicon | > 2 µM |
| CCn1c(-c2cccc(NC(=O)Oc3ccc(F)cc3)c2)c(C#N)c2ccc(OC)cc21 [Compound 307] | HCV replicon | 0.5 to 2 µM |
| CCOc1ccc2cc(-c3ccc(NS(=O)(=O)CC)cc3)n(CC)c2c1 [Compound 411] | HCV replicon | 0.5 to 2 µM |
| CCn1c(-c2cc(NC(=O)OCCCl)ccc2F)c(C#N)c2ccc(OC(C)C)cc21 [Compound 665] | HCV replicon | > 2 µM |
| CCn1c(-c2ccc(-c3ccccc3)cc2)c(C#N)c2ccc(OC)cc21 [Compound 283] | HCV replicon | > 2 µM |
| CCn1c(-c2ccc(N(C)C)cc2)c(C#N)c2ccc(C(F)(F)F)cc21 [Compound 259] | HCV replicon | > 2 µM |
| CCn1c(-c2ccc(NS(=O)(=O)c3cn(C)cn3)cc2)c(C#N)c2ccc(OC)cc21 [Compound 448] | HCV replicon | > 2 µM |
| CCn1c(-c2ccc(NC(=O)c3ccco3)cc2)c(C#N)c2ccccc21 [Compound 646] | HCV replicon | 0.5 to 2 µM |
| C#CCOC(=O)Nc1ccc(-c2c(C#N)c3ccc(OC)cc3n2CC)cc1 [Compound 358] | HCV replicon | > 2 µM |
